experiment: Growth inhibition of human BSY1 cells after 48 hrs by sulforhodamine B colorimetric assay; format: functional; conditions: BSY-1, 48 h
Hi there, I'd appreciate the recorded GI50 for every entry that follows.
Answer format: numeric, µM implied, no suffix.

Req: I have this compound here, `CCCCCCCCCCCC[C@@H](O)[C@H]1CC[C@H]([C@H](O)CCCCCCCCCCNC(=O)c2cncs2)O1` , and I need its recorded GI50.
Resp: 3.98

Req: Consider the compound `CCCCCCCCCCCC[C@@H](O)[C@H]1CC[C@H]([C@H](O)CCCCCCCCCCNC(=O)c2ccoc2)O1` and give its measured GI50.
Resp: 2.19

Req: Return reported GI50; argument: `CCCCCCCCCCCC[C@@H](O)[C@H]1CC[C@H]([C@H](O)CCCCCCCCCCNC(=O)c2ccco2)O1`
Resp: 0.49

Req: Give its GI50 value. Item: `CCCCCCCCCCCC[C@@H](O)[C@H]1CC[C@H]([C@H](O)CCCCCCCCCCNC(=O)c2cccs2)O1`
Resp: 18.2

Req: Give the measured GI50 of `CCCCCCCCCCCC[C@@H](O)[C@H]1CC[C@H]([C@H](O)CCCCCCCCCCNC(=O)c2ccsc2)O1` .
Resp: 3.02

====

test: Growth inhibition of human MKN74 cells after 48 hrs by sulforhodamine B colorimetric assay; assay type: functional; details: MKN-74, 48 h
measured endpoint: GI50 (µM)
// note: answer is a bare numeric in µM

Req: Any idea what GI50 was measured for `CCCCCCCCCCCC[C@@H](O)[C@H]1CC[C@H]([C@H](O)CCCCCCCCCCNC(=O)c2cncs2)O1` ?
Resp: 61.7

Req: Entry `CCCCCCCCCCCC[C@@H](O)[C@H]1CC[C@H]([C@H](O)CCCCCCCCCCNC(=O)c2ccco2)O1` has what GI50?
Resp: 1.7

Req: Which value of GI50 has been reported for `CCCCCCCCCCCC[C@@H](O)[C@H]1CC[C@H]([C@H](O)CCCCCCCCCCNC(=O)c2ccsc2)O1` in the records?
Resp: 1.51

Req: Consider the compound shown here: `CCCCCCCCCCCC[C@@H](O)[C@H]1CC[C@H]([C@H](O)CCCCCCCCCCNC(=O)c2ccoc2)O1` What is its recorded GI50?
Resp: 21.9

Req: Suppose we examine the compound `CCCCCCCCCCCC[C@@H](O)[C@H]1CC[C@H]([C@H](O)CCCCCCCCCCNC(=O)c2cccs2)O1` ; what GI50 value has been reported?
Resp: 1.51

====

system: DU-145; test: Growth inhibition of human DU145 cells after 48 hrs by sulforhodamine B colorimetric assay; format: functional; settings: DU-145, 48 h
measured endpoint: GI50

Req: Requested field: GI50. Item: `CCCCCCCCCCCC[C@@H](O)[C@H]1CC[C@H]([C@H](O)CCCCCCCCCCNC(=O)c2ccnn2C)O1`
Resp: > 100 µM

Req: I'd like to know its GI50. The compound in question is `CCCCCCCCCCCC[C@@H](O)[C@H]1CC[C@H]([C@H](O)CCCCCCCCCCNC(=O)c2ccoc2)O1`
Resp: > 100 µM

Req: Given the compound `CCCCCCCCCCCC[C@@H](O)[C@H]1CC[C@H]([C@H](O)CCCCCCCCCCNC(=O)c2ccsc2)O1` , what is its reported GI50?
Resp: 2.19 µM

Req: Would you mind telling me what GI50 value was observed for CCCCCCCCCCCC[C@@H](O)[C@H]1CC[C@H]([C@H](O)CCCCCCCCCCCCC2=C[C@H](C)OC2=O)O1 [REL-SOLAMIN] ?
Resp: > 100 µM

Req: // lookup GI50 for `CCCCCCCCCCCC[C@@H](O)[C@H]1CC[C@H]([C@H](O)CCCCCCCCCCNC(=O)c2cccs2)O1`
Resp: 2.69 µM

Req: Need GI50 of `CCCCCCCCCCCC[C@@H](O)[C@H]1CC[C@H]([C@H](O)CCCCCCCCCCNC(=O)c2cncs2)O1` , thanks.
Resp: > 100 µM

Req: Any idea what its GI50 is? The compound is `CCCCCCCCCCCC[C@@H](O)[C@H]1CC[C@H]([C@H](O)CCCCCCCCCCNC(=O)c2ccco2)O1`
Resp: > 100 µM

====

So I've got a bunch of molecules here, and I need their GI50 values.
experiment: Growth inhibition of human PC3 cells after 48 hrs by sulforhodamine B colorimetric assay; type: functional; details: PC-3, 48 h
Kindly provide the numeric value in µM only, without the unit symbol.

Req: For `CCCCCCCCCCCC[C@@H](O)[C@H]1CC[C@H]([C@H](O)CCCCCCCCCCNC(=O)c2ccoc2)O1` , what is its reported GI50?
Resp: 52.5

Req: I would be grateful if you could share the reported GI50 for `CCCCCCCCCCCC[C@@H](O)[C@H]1CC[C@H]([C@H](O)CCCCCCCCCCNC(=O)c2ccsc2)O1` .
Resp: 1.7

Req: Which GI50 is reported for this molecule? `CCCCCCCCCCCC[C@@H](O)[C@H]1CC[C@H]([C@H](O)CCCCCCCCCCNC(=O)c2cccs2)O1`
Resp: 2.29

====

assay: Growth inhibition of human DMS273 cells after 48 hrs by sulforhodamine B colorimetric assay; assay type: functional; conditions: DMS-273, 48 h
Please go through the items and note down their GI50.
// return numeric value only (unit: µM, not printed)

Req: Please give the measured GI50 for this compound: `CCCCCCCCCCCC[C@@H](O)[C@H]1CC[C@H]([C@H](O)CCCCCCCCCCNC(=O)c2cncs2)O1`
Resp: 19.1

Req: Consider the compound `CCCCCCCCCCCC[C@@H](O)[C@H]1CC[C@H]([C@H](O)CCCCCCCCCCNC(=O)c2ccsc2)O1` and give its measured GI50.
Resp: 2

Req: Can you look up the measured GI50 of `CCCCCCCCCCCC[C@@H](O)[C@H]1CC[C@H]([C@H](O)CCCCCCCCCCNC(=O)c2cccs2)O1` for me?
Resp: 1.82

Req: Which GI50 value belongs to `CCCCCCCCCCCC[C@@H](O)[C@H]1CC[C@H]([C@H](O)CCCCCCCCCCNC(=O)c2ccco2)O1` ?
Resp: 39.8

====

Task for the reader: assign each of the following compounds its reported GI50.
assay: Growth inhibition of human SF539 cells after 48 hrs by sulforhodamine B colorimetric assay; format: functional; conditions: SF-539, 48 h
Give the number; µM is assumed, so skip it.

Req: # lookup: GI50 of `CCCCCCCCCCCC[C@@H](O)[C@H]1CC[C@H]([C@H](O)CCCCCCCCCCNC(=O)c2cncs2)O1`
Resp: 50.1

Req: Consider the compound `CCCCCCCCCCCC[C@@H](O)[C@H]1CC[C@H]([C@H](O)CCCCCCCCCCNC(=O)c2cccs2)O1` and give its measured GI50.
Resp: 17

Req: For the compound `CCCCCCCCCCCC[C@@H](O)[C@H]1CC[C@H]([C@H](O)CCCCCCCCCCNC(=O)c2ccco2)O1` , what GI50 is on record?
Resp: 81.3

====

tested on: St-4; assay: Growth inhibition of human St-4 cells after 48 hrs by sulforhodamine B colorimetric assay; type: functional; details: St-4, 48 h
Field: GI50. Provide a value for each of the compounds that follow.
Reply numerically in µM, unit not repeated.

Req: What value of GI50 has been recorded for this entry: `CCCCCCCCCCCC[C@@H](O)[C@H]1CC[C@H]([C@H](O)CCCCCCCCCCNC(=O)c2ccsc2)O1`
Resp: 1.7

Req: Give its GI50 value. Item: `CCCCCCCCCCCC[C@@H](O)[C@H]1CC[C@H]([C@H](O)CCCCCCCCCCNC(=O)c2ccoc2)O1`
Resp: 97.7

Req: Which GI50 is listed for `CCCCCCCCCCCC[C@@H](O)[C@H]1CC[C@H]([C@H](O)CCCCCCCCCCNC(=O)c2cccs2)O1` ?
Resp: 1.82

====

tested on: NCI-H460; test: Growth inhibition of human NCI-H460 cells after 48 hrs by sulforhodamine B colorimetric assay; assay type: functional; conditions: NCI-H460, 48 h
Give measured GI50 for each item. Keep answers brief.
Provide the reading as a plain figure in µM.

Req: Returns the measured GI50 for the input molecule. Input: `CCCCCCCCCCCC[C@@H](O)[C@H]1CC[C@H]([C@H](O)CCCCCCCCCCNC(=O)c2ccco2)O1`
Resp: 18.2

Req: Looking for the measured GI50 of `CCCCCCCCCCCC[C@@H](O)[C@H]1CC[C@H]([C@H](O)CCCCCCCCCCNC(=O)c2ccsc2)O1` , can you help?
Resp: 4.9

Req: Can you look up the measured GI50 of `CCCCCCCCCCCC[C@@H](O)[C@H]1CC[C@H]([C@H](O)CCCCCCCCCCNC(=O)c2cncs2)O1` for me?
Resp: 34.7

Req: Query: GI50; subject: `CCCCCCCCCCCC[C@@H](O)[C@H]1CC[C@H]([C@H](O)CCCCCCCCCCNC(=O)c2cccs2)O1`
Resp: 2.29
